Molecular target: human CD137 on primary human CD8+ T cells (human, UniProt Q07011 24-255)
Sequence (Q07011 24-255): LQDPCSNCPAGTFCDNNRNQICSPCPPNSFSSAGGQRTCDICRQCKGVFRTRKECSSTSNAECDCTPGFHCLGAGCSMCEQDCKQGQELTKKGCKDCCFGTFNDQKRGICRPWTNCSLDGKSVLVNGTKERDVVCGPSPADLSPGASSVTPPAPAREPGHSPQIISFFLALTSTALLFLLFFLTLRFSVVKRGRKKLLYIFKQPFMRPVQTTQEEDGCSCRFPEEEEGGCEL
Test: cell-based or functional assay
The threshold is 0.05 nM. Values of IL-2 release EC50, NCI-H226 co-culture, Donor B beneath it are tagged fulfilled; values meeting or exceeding it are tagged not fulfilled.

binder="FS22-172-003-AA/FS28-256-021 (bispecific antibody, human IgG1, kappa, L234A L235A, V domains shown, IgG1 mAb^2 with LALA) VH: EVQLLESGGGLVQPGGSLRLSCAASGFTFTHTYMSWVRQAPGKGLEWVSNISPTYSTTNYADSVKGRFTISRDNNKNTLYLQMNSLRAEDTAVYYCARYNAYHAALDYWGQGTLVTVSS VL: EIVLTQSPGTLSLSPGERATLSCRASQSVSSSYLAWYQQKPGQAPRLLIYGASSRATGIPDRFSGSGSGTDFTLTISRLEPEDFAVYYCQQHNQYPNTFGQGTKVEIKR" assigned_category=fulfilled
binder="FS22-172-003-AA/FS28-024-053 (bispecific antibody, human IgG1, kappa, L234A L235A, V domains shown, IgG1 mAb^2 with LALA) VH: EVQLLESGGGLVQPGGSLRLSCAASGFTLSYSSMSWVRQAPGKGLEWVSFITPSTGYTHYADSVKGRFTISRDNSKNTLYLQMNSLRAEDTAVYYCARRALVFDYWGQGTLVTVSS VL: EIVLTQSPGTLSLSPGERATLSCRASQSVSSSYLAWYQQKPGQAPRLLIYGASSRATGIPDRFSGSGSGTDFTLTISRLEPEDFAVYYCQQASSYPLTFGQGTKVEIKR" assigned_category=fulfilled
binder="FS22-172-003-AA/FS28-256-024 (bispecific antibody, human IgG1, kappa, L234A L235A, V domains shown, IgG1 mAb^2 with LALA) VH: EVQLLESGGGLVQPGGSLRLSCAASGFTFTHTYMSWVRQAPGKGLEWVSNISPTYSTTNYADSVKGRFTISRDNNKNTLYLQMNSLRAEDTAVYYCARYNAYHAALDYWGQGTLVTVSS VL: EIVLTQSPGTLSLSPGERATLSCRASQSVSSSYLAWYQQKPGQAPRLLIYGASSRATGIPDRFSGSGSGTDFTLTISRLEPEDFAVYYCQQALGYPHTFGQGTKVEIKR" assigned_category="not fulfilled"
binder="FS22-172-003-AA/FS28-256-012 (bispecific antibody, human IgG1, kappa, L234A L235A, V domains shown, IgG1 mAb^2 with LALA) VH: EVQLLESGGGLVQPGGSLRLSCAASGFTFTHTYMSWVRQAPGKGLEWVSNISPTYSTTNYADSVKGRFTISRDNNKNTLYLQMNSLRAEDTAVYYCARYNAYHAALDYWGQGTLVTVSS VL: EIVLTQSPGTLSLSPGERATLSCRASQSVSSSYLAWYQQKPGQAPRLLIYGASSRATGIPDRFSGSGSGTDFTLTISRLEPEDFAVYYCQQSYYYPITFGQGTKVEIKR" assigned_category="not fulfilled"

Would you kindly verify if IL-2 release EC50, NCI-H226 co-culture, Donor B of FS22-172-003-AA/FS28-256-026 (bispecific antibody, human IgG1, kappa, L234A L235A, V domains shown, IgG1 mAb^2 with LALA) VH: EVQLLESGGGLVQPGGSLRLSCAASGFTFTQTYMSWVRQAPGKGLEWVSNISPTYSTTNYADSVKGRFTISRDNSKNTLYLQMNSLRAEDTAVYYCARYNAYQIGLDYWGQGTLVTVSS VL: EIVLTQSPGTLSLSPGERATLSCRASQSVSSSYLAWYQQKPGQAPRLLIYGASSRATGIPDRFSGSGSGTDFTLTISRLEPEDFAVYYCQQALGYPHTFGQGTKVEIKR is strictly less than 0.05 nM?
not fulfilled
